# Tested on: SF-295
# procedure text: NCI tumour cell line growth inhibition, 48 h
Activity calls are given as the source filed them. No stated cut-off is given here; in the data, active = GI50 up to about 1.1 µM and inactive = higher.
readout kind: GI50

Solved entries (count: 2):
compound	readout kind	recorded result
C=C(CCCCC)CN1CCCC1C(C)=O (stereo not drawn)	GI50	26.8 µM (inactive)
COc1cccc(C2CC23C(=O)NC(=O)NC3=O)c1 (stereo not drawn)	GI50	> 100 µM (inactive)

Then there is this compound:
Quick note, GI50 for COc1ccc(C23C(=O)c4ccccc4N2O[C@H]2C(=O)N(c4ccccc4)C(=O)[C@H]23)cc1 (stereo partly drawn) landed at > 100 µM (inactive)

====

# Tested on: CAKI-1
# procedure text: NCI tumour cell line growth inhibition, 48 h
Active and inactive are the calls of the source. No stated cut-off is given here; in the data, active = GI50 up to about 1.1 µM and inactive = higher.
readout kind: GI50

molecule	recorded result
CSc1ccc(/C=C2\N=C(c3ccccc3)N(/N=C/c3cc4cc(C)ccc4nc3Cl)C2=O)cc1	18.1 µM (inactive)

I have 3 molecules here; please give me GI50 for each one.
1. O=C(CC(C(=O)c1ccsc1)c1ccsc1)c1ccsc1 (stereo not given)
2. c1cncc(CNc2ncn[nH]2)c1
3. CC(=O)n1nc(-c2ccccc2)n(/N=C/c2ccc([N+](=O)[O-])o2)c1=O

["> 100 µM (inactive)", "> 100 µM (inactive)", "9.46 µM (inactive)"]
